Biological target: hA2a/CHO (Homo sapiens (Human))
Sequence (P29274 whole entry): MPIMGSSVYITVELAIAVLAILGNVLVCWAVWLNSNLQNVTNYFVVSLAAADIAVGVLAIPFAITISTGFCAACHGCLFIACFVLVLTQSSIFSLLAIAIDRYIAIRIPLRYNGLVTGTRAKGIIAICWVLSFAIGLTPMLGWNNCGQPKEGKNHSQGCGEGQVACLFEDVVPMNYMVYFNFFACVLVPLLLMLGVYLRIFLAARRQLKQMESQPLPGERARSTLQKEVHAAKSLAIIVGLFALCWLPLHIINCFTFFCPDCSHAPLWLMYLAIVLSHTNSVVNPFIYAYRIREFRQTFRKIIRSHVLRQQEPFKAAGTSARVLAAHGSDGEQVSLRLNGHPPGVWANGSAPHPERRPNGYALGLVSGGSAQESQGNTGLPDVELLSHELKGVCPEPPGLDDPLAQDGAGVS
Experiment: cAMP inhibition assay in hA2a/CHO cells, 10 μM adenosine;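 note: compounds added to cells 30 min ahead of adenosine, then a further 30 min at 37 °C with adenosine before cAMP detection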
Type: cell-based
Conditions: read-out: cAMP & FLIPR IC50 (nM) hA2a
In this section we review reported IC50 values for a set of molecules.
VALUE TYPE: IC50 (nM)

Cc1cc(-c2nc(C(=O)NCc3c(F)cccc3F)c(N)nc2-c2ncco2)ccn1 :: 17
CNC1CN(c2cccc(CNC(=O)c3nc(-c4ccc5ncc(C)n5c4)c(-c4ncco4)nc3N)n2)C1 :: 0.4
Cc1cnc2ccc(-c3nc(CNC(=O)[C@H]4CCCN4C)c(N)nc3-c3cccc(F)c3)cn12 :: 0.4
Cn1cc(-c2nc(C(=O)NCc3ncccc3F)c(N)nc2-c2ncco2)ccc1=O :: 98
